compounds and their reported Growth inhibition rate, Pre-emergence treatment, Echinochloa crus-galli (L.) Beauv.
test system: Echinochloa crus-galli (L.) Beauv.; test: Bioassay of herbicidal activity in greenhouse (further screening); assay type: in vivo; settings: pre-emergence; dose 37.5 g a.i./hm^2
experimental readout: Growth inhibition rate, Pre-emergence treatment, Echinochloa crus-galli (L.) Beauv. (%)

>>> print(df.to_string())
                                    compound  readout_unit  observed_measurement
 0  Cn1c(C(F)(F)F)cc(=O)n(-c2cc(C3=NOC(C)(COC(=O)CCl)C3)c(Cl)cc2F)c1=O (centres unmarked) [Compound 50]             %                     0
 1  Cn1c(C(F)(F)F)cc(=O)n(-c2cc(C3=NOC(C)(COC(=O)CCc4ccccc4)C3)c(Cl)cc2F)c1=O (centres unmarked) [Compound 55]             %                     0
 2  Cn1c(C(F)(F)F)cc(=O)n(-c2cc(C3=NOC(C)(COC(=O)COc4ccc(Cl)cc4Cl)C3)c(Cl)cc2F)c1=O (centres unmarked) [Compound 83]             %                    25
 3  CSCCC(=O)OCC1(C)CC(c2cc(-n3c(=O)cc(C(F)(F)F)n(C)c3=O)c(F)cc2Cl)=NO1 (centres unmarked) [Compound 54]             %                     0
 4  CCOC(=O)C1(C)CC(c2cc(-n3c(=O)cc(C(F)(F)F)n(C)c3=O)ccc2Cl)=NO1 (centres unmarked) [Compound 284]             %                     0
 5  C#CCOC(=O)C1(C)CC(c2cc(-n3c(=O)cc(C(F)(F)F)n(C)c3=O)ccc2Cl)=NO1 (centres unmarked) [Compound 290]             %                     0
 6  Cn1c(C(F)(F)F)cc(=O)n(-c2cc(C3=NOC(C)(COC(=O)C4CC4)C3)c(Cl)cc2F)c1=O (centres unmarked) [Compound 45]             %                    20
 7  CCCCOC(=O)C1(C)CC(c2cc(-n3c(=O)cc(C(F)(F)F)n(C)c3=O)ccc2Cl)=NO1 (centres unmarked) [Compound 286]             %                     0
 8  Cn1c(C(F)(F)F)cc(=O)n(-c2cc(C3=NOC(C)(C(N)=O)C3)c(Cl)cc2F)c1=O (centres unmarked) [Compound 22]             %                     0
 9  CCCS(=O)(=O)OCC1(C)CC(c2cc(-n3c(=O)cc(C(F)(F)F)n(C)c3=O)c(F)cc2Cl)=NO1 (centres unmarked) [Compound 90]             %                     0
10  Cn1c(C(F)(F)F)cc(=O)n(-c2cc(C3=NOC(C)(COS(C)(=O)=O)C3)c(Cl)cc2F)c1=O (centres unmarked) [Compound 88]             %                    15
11  CC(C)C(=O)OCC1(C)CC(c2cc(-n3c(=O)cc(C(F)(F)F)n(C)c3=O)c(F)cc2Cl)=NO1 (centres unmarked) [Compound 46]             %                    50
12  CC(=O)OCC1(C)CC(c2cc(-n3c(=O)cc(C(F)(F)F)n(C)c3=O)c(F)cc2Cl)=NO1 (centres unmarked) [Compound 43]             %                    90
13  Cn1c(C(F)(F)F)cc(=O)n(-c2cc(C3=NOC(C)(C(=O)O)C3)c(Cl)cc2F)c1=O (centres unmarked) [Compound 4]             %                     0
